# target-or-system: G-protein coupled receptor 35 (Homo sapiens)
# test: inhibition of zaprinast-stimulated GPR35 beta-arrestin translocation – imaging, U2OS, beta-arrestin-GFP, zaprinast agonist, primary screen (AID 2058)
# experimental-setup: zaprinast antagonism, at 10 µM
In all, about 290,000 compounds went through this assay and about 150 (0.052%) were called active.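 How the source made its calls: active means inhibition of at least 50% with at least 30 cells and total cytoplasm GFP at most 10,000,000; inconclusive means under 30 cells or total GFP of 10,000,000 plus; inactive means the rest.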 Many of the other results were omitted from the sample, so actives are more common in it than they were. Results with a measured potency or affinity are listed apart.
Output constraint: value belongs to y (active), n (inactive)

Exercise: What outcome does the record of this test show for CCCCNC(=O)NC(C(N)=O)P(=O)(OCC)OCC (centres undefined) ?
Solution: n

Exercise: What call does the record list for `Cc1nccc2c1[nH]c1ccccc12` ?
Solution: n

Exercise: Hi, sorry to bother you, what did the test record for `Clc1ccc(NC2=NCCCS2)cc1Cl` ?
Solution: n

Exercise: Which result was noted for this molecule in the test: `CCOc1ccc(Cl)cc1CNCCc1ccc(F)cc1`
Solution: n

Exercise: Could you check what this test reported for COc1cccc(C2CC3C(=O)C=CC2N3Cc2ccccc2)c1 (centres undefined) ?
Solution: y

Exercise: Dear all, I need the recorded test outcome for `CN1/C(=C\C=C2C(=O)NC(=O)NC2=O)C(C)(C)c2ccccc21` , thank you.
Solution: n

New cases:
Exercise: Test call for this molecule, please: `CN1/C(=C\C=C\C2=[N+](C)c3ccc4ccccc4c3C2(C)C)C(C)(C)c2ccccc21`
Solution: y

Exercise: Tell me the assay call for `CN1/C(=C\C=Nc2ccccc2)C(C)(C)c2ccccc21` please.
Solution: n

Exercise: Could you please tell me the result logged for `CCCNS(=O)(=O)c1ccc(OCC(=O)N2CCN(C)CC2)cc1` in this assay?
Solution: n
